Biological target: T1, ExoI Gln452Ala variant (Escherichia coli, UniProt P04995 1-475)
T1 construct: helical domain residue; also called Q452A; Gln452 variant
T1 sequence: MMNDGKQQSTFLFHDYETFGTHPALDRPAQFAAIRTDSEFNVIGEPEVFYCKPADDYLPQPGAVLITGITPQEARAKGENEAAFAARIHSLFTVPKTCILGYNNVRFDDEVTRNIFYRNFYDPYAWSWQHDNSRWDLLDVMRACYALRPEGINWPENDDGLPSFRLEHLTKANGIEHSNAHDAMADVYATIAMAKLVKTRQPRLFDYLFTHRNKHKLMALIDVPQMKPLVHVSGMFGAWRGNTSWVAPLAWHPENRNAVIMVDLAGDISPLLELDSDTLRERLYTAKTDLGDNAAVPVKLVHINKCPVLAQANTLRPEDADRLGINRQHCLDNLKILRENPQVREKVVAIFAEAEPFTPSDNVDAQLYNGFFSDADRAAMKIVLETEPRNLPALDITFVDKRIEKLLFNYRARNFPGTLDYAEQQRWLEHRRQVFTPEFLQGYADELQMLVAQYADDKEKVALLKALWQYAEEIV
Experiment: fluorescence anisotropy equilibrium binding (Kd,app), ExoI variant titrated into fluorescein-labeled peptide
Where no end group is shown, it is not given here. fluorescein = fluorescein moiety attached to the N-terminus of the peptide (N-terminal fluorescein label)
endpoint: pKd
Bear in mind: pKd is minus log10 of a mol/L concentration; give just that figure.

Recorded pKd of fluorescein-WMDFDDDIPF (also called F-SSB-Ct; F-WT) [fluorescein-labeled SSB C-terminal peptide (fluorescein-WMDFDDDIPF)] , please.
6.67
